Each record here notes measured Plant response rating, Barnyardgrass.
# Tested on: barnyardgrass (Echinochloa crus-galli)
# experimentalDetails: Test C preemergence
# Type: in vivo
# conditionContext: 250 g ai/ha, scale 0 to 100, 0 no effect, 100 complete control
A bare number is all that is needed in reply.

compound: Cc1ccc(C2CN(C)C(=O)C2C(=O)Nc2cccc(F)c2F)cc1F (stereo not shown)
studySystem: barnyardgrass (Echinochloa crus-galli)
numericResult: 98

In: Look up and state reported Plant response rating, Barnyardgrass for CN1CC(c2cccc(C(F)(F)F)c2)C(C(=O)Nc2ccccc2S(C)(=O)=O)C1=O (stereo not shown)
Out: 95

In: Answer with the recorded Plant response rating, Barnyardgrass for the compound listed here: O=C1NCC(c2cccc(OC(F)(F)C(F)F)c2)C1C(=O)Nc1ccccc1F (racemic)
Out: 90

In: Given the compound CN1CC(c2ccc(F)c(C(F)(F)F)c2)C(C(=O)Nc2cccc(F)c2F)C1=O (stereo not shown) , write its reported Plant response rating, Barnyardgrass.
Out: 98

---

# Tested on: Kochia (Kochia scoparia)
# experimentalDetails: Test A preemergence
# Type: in vivo
# conditionContext: Bassia scoparia, pre-emergence, 240 h, 500 g ai/ha, preemergence; visual injury rating about 10 d after treatment, 0 to 100 scale (0 no effect, 100 complete control); read-out: Kochia plant response rating
# Description: […]
experimentalReadout: pest or weed control at 500 g/ha

Completed entries (count: 4):
structureSmilesString: Cc1cc(F)ccc1NC(=O)[C@H]1C(=O)N(C)C[C@@H]1c1ccc(C(F)(F)F)cc1
studySystem: Kochia (Kochia scoparia)
pest or weed control at 500 g/ha: 90%

structureSmilesString: Cc1ccc([C@H]2CNC(=O)[C@@H]2C(=O)Nc2cccc(F)c2C)cc1C
studySystem: Kochia (Kochia scoparia)
pest or weed control at 500 g/ha: 50%

structureSmilesString: CSc1ccccc1NC(=O)[C@H]1C(=O)N(C)C[C@@H]1c1cc(F)cc(Cl)c1
studySystem: Kochia (Kochia scoparia)
pest or weed control at 500 g/ha: 90%

structureSmilesString: CSc1ccccc1NC(=O)[C@H]1C(=O)NC[C@@H]1c1ccc(C)c(C)c1
studySystem: Kochia (Kochia scoparia)
pest or weed control at 500 g/ha: 90%

In: Indicate its recorded pest or weed control at 500 g/ha; the compound in question is CN1C[C@H](c2ccc(C(F)(F)F)cc2)[C@@H](C(=O)Nc2ccccc2Br)C1=O
Out: 80%

---

# Test system: blackgrass (Alopecurus myosuroides)
# experimentalDetails: Test A postemergence
# Type: in vivo
# conditionContext: Alopecurus myosuroides, post-emergence, 240 h, 125 g ai/ha, Postemergence, visual rating about 10 d after treatment; read-out: Blackgrass plant response rating (0 to 100 scale)
Binary classification by pest or weed control at 125 g/ha, with 30% as an inclusive lower bound for Fulfilled; all other cases are Not fulfilled.

molecule: CC(C)Oc1ccc([C@H]2CN(C)C(=O)[C@@H]2C(=O)Nc2ccccc2F)cc1F [Compound 1333]
classLabel: Not fulfilled
--
molecule: Cc1cc([C@H]2CN(C)C(=O)[C@@H]2C(=O)Nc2ccccc2[S+](C)[O-])ccc1F (stereo partly shown) [Compound 1313]
classLabel: Not fulfilled
--
molecule: CN1CC(c2cccc(OCC=C(Cl)Cl)c2)C(C(=O)Nc2cccc(F)c2F)C1=O (stereo not shown) [Compound 1303]
classLabel: Not fulfilled
--
molecule: O=C(Nc1ccccc1F)C1C(=O)N(CC(F)F)CC1c1cccc(C(F)(F)F)c1 (stereo not shown) [Compound 1293]
classLabel: Not fulfilled
--
molecule: COc1cc(OC)cc([C@H]2CN(C)C(=O)[C@@H]2C(=O)Nc2cccc(F)c2F)c1 [Compound 1370]
classLabel: Fulfilled

In: Is pest or weed control at 125 g/ha for CS(=O)(=O)c1ccccc1NC(=O)[C@H]1C(=O)NC[C@@H]1c1ccc2c(c1)CCO2 [Compound 1320] at or above 30%?
Out: Not fulfilled

In: Tell me whether pest or weed control at 125 g/ha is at least 30% here: Cc1ccc([C@H]2CN(C)C(=O)[C@@H]2C(=O)Nc2c(F)c(F)c(F)c(F)c2F)cc1 [Compound 1292]
Out: Not fulfilled

In: Quick check: does Cc1c(F)cccc1NC(=O)[C@H]1C(=O)NC[C@@H]1c1cccc2c1OC(F)(F)O2 [Compound 1305] have pest or weed control at 125 g/ha greater than or equal to 30%?
Out: Not fulfilled

In: Reported pest or weed control at 125 g/ha at or above 30%? C=CN1C[C@H](c2ccc(C)c(F)c2)[C@@H](C(=O)Nc2cccc(F)c2F)C1=O (racemic) [Compound 1332]
Out: Not fulfilled

In: Item CN1C[C@H](c2cccc(C(C)(F)F)c2)[C@@H](C(=O)Nc2ccccc2S(C)(=O)=O)C1=O [Compound 1318] with pest or weed control at 125 g/ha of 30% or above?
Out: Fulfilled

In: Does CN1C[C@H](c2cccc(C(C)(F)F)c2)[C@@H](C(=O)Nc2ccccc2F)C1=O [Compound 1317] have a reported pest or weed control at 125 g/ha of at least 30%?
Out: Fulfilled

In: Answer whether pest or weed control at 125 g/ha of Cc1ccc([C@H]2CN(C)C(=O)[C@@H]2C(=O)Nc2ccccc2)cc1 [Compound 1291] is greater than or equal to 30%.
Out: Not fulfilled

---

# Test system: blackgrass (Alopecurus myosuroides)
# experimentalDetails: Test C preemergence
# Assay type: in vivo
# conditionContext: 62 g ai/ha, scale 0 to 100, 0 no effect, 100 complete control
experimentalReadout: Plant response rating, Blackgrass

Before answering, review these 3 worked examples.
molecule: O=C1NCC(c2cccc(OC(F)(F)C(F)F)c2)C1C(=O)Nc1ccccc1F (racemic)
Plant response rating, Blackgrass: 20
//
molecule: O=C1NCC(c2cc(F)cc(Cl)c2)C1C(=O)Nc1cccc(F)c1F (stereo not shown)
Plant response rating, Blackgrass: 5
//
molecule: CN1CC(c2cccc(OC(F)F)c2)C(C(=O)Nc2ccccc2F)C1=O (stereo not shown)
Plant response rating, Blackgrass: 10

Kindly consider the entry below.
In: Return value of Plant response rating, Blackgrass for input CN1CC(c2ccc(C(F)(F)F)cc2)C(C(=S)Nc2ccccc2F)C1=O (stereo not shown) , no commentary.
Out: 0

---

Listed here are compounds together with their documented Kochia plant response rating (0 to 100 scale, 0 is no effect, 100 is complete control).
# System: Kochia (Kochia scoparia)
# experimentalDetails: Test A preemergence
# Assay type: in vivo
# conditionContext: Preemergence, 500 g ai/ha, visual injury approx. 10 d
# Source text: […]
Response field accepts a number only; no unit should be typed.

compound: O=C1NCC(c2ccc(C(F)(F)F)c(F)c2)C1C(=O)Nc1ccc(F)cc1F (racemic) [Compound 522]
numericResult: 60

In: Provide measured Kochia plant response rating (0 to 100 scale, 0 is no effect, 100 is complete control) value, entry: O=C1NCC(c2ccc(Br)cc2)C1C(=O)Nc1ccc(F)cc1F (stereo not drawn) [Compound 447]
Out: 50

In: Quick one: give measured Kochia plant response rating (0 to 100 scale, 0 is no effect, 100 is complete control) for O=C1NCC(c2cc(C(F)(F)F)ccc2F)C1C(=O)Nc1cccc(F)c1F (stereo not drawn) [Compound 594]
Out: 50

In: Report Kochia plant response rating (0 to 100 scale, 0 is no effect, 100 is complete control) for COCc1cccc(C2CNC(=O)C2C(=O)Nc2ccccc2Cl)c1 (stereo not drawn) [Compound 498]
Out: 0

In: Return reported Kochia plant response rating (0 to 100 scale, 0 is no effect, 100 is complete control). Input compound: CN1CC(c2ccc3c(c2)OC(F)(F)O3)C(C(=O)Nc2ccccc2F)C1=O (stereo not drawn) [Compound 441]
Out: 80

In: State its Kochia plant response rating (0 to 100 scale, 0 is no effect, 100 is complete control) for this compound: O=C(Nc1cccc(F)c1F)C1C(=O)N(CC=CCl)CC1c1cccc(C(F)(F)F)c1 (stereo not drawn) [Compound 485]
Out: 0

In: Please give the documented Kochia plant response rating (0 to 100 scale, 0 is no effect, 100 is complete control) of O=C1NCC(c2ccsc2Br)C1C(=O)Nc1ccccc1F (stereo not drawn) [Compound 597]
Out: 20

In: Tell us which Kochia plant response rating (0 to 100 scale, 0 is no effect, 100 is complete control) value is on record for O=C(Nc1cccc(F)c1F)C1C(=O)N(CC=CBr)CC1c1cccc(C(F)(F)F)c1 (stereo not drawn) [Compound 527]
Out: 0

In: For the compound CCc1cccc(C2CN(C)C(=O)C2C(=O)Nc2ccccc2F)c1 (stereo not drawn) [Compound 567] , give its reported Kochia plant response rating (0 to 100 scale, 0 is no effect, 100 is complete control).
Out: 80

In: Return the recorded Kochia plant response rating (0 to 100 scale, 0 is no effect, 100 is complete control) value; entry: Cc1c(F)cccc1NC(=O)C1C(=O)N(C)CC1c1cccc(C(F)(F)F)c1 (stereo not drawn) [Compound 573]
Out: 80

In: Item Cc1c(F)ccc(NC(=O)C2C(=O)NCC2c2cccc(OC(F)(F)C(F)F)c2)c1F (stereo not drawn) [Compound 460] : provide Kochia plant response rating (0 to 100 scale, 0 is no effect, 100 is complete control)
Out: 40

In: Quickly give me recorded Kochia plant response rating (0 to 100 scale, 0 is no effect, 100 is complete control) for O=C(Nc1cccc(F)c1F)C1C(=O)N(c2ccccc2)CC1c1cccc(C(F)(F)F)c1 (stereo not drawn) [Compound 457]
Out: 0

In: Quick one: give measured Kochia plant response rating (0 to 100 scale, 0 is no effect, 100 is complete control) for C=CCN1CC(c2cccc(C(F)(F)F)c2)C(C(=O)Nc2cccc(F)c2F)C1=O (stereo not drawn) [Compound 606]
Out: 0

In: Provide Kochia plant response rating (0 to 100 scale, 0 is no effect, 100 is complete control) value for the following compound: O=C(Nc1ccccc1F)C1C(=O)N(CC=CBr)CC1c1cccc(C(F)(F)F)c1 (stereo not drawn) [Compound 526]
Out: 0

In: Fill in Kochia plant response rating (0 to 100 scale, 0 is no effect, 100 is complete control) for record O=C(Nc1ccccc1F)C1C(=O)N(C2C=CCCC2)CC1c1cccc(C(F)(F)F)c1 (stereo not drawn) [Compound 524]
Out: 0

In: Quote Kochia plant response rating (0 to 100 scale, 0 is no effect, 100 is complete control) reported for Cc1cc(C2CN(C)C(=O)C2C(=O)Nc2ccccc2S(C)(=O)=O)ccc1F (stereo not drawn) [Compound 405] please.
Out: 70

In: Dear colleague, please send me the reported Kochia plant response rating (0 to 100 scale, 0 is no effect, 100 is complete control) for COC(=O)c1ccccc1NC(=O)C1C(=O)NCC1c1ccc(F)c(F)c1 (stereo not drawn) [Compound 417] when you can.
Out: 0

In: Given the compound CC(C)=CCN1CC(c2cccc(C(F)(F)F)c2)C(C(=O)Nc2cccc(F)c2F)C1=O (stereo not drawn) [Compound 477] , write its reported Kochia plant response rating (0 to 100 scale, 0 is no effect, 100 is complete control).
Out: 0

In: Answer with the recorded Kochia plant response rating (0 to 100 scale, 0 is no effect, 100 is complete control) of O=C1NCC(c2ccnc(C(F)(F)F)c2)C1C(=O)Nc1cccc(F)c1F (racemic) [Compound 514] only.
Out: 50

In: Name the recorded Kochia plant response rating (0 to 100 scale, 0 is no effect, 100 is complete control) of the item CN1CC(c2ccc(C(F)(F)F)c(F)c2)C(C(=O)Nc2ccccc2S(C)(=O)=O)C1=O (stereo not drawn) [Compound 397] in your answer.
Out: 90

In: Find the measured Kochia plant response rating (0 to 100 scale, 0 is no effect, 100 is complete control) of CN1CC(c2ccc(C(F)(F)F)cc2)C(C(=S)Nc2ccccc2F)C1=O (stereo not drawn) [Compound 450] and report it.
Out: 80
